Listing of entries alongside the reported Kd.
# Measured On: alpha-synuclein fibrils, P37840
# Method Description: SPR, captured mAb
# Assay Setup: remark: other sources report otherwise

{"Binder": "ACI-7088-4303H6-Ab1 (antibody, V domains shown) VH: EVQLQQSGAELVRPGASVKLSCTASGFNIQDDYMHWVKQRPEQGLEWIGWIDPENGDTEYASKFQGKATLTADTSSNTAYLQLSRLTSEDTAVYYCTTAGSGVQLFDYWGQGTTLTVSA VL: DILMTQSQKFMSTSVGDRVSVTCKASQNVGTNVAWYQQKPGQSPKPLISSASSRYSGVPDRFTGSGSGTDFTLTISNVQSEDLADYFCQQYNRYPLTFGAGTKLELK", "Kd [nM]": 43.7}
{"Binder": "ACI-7079-2506E2-Ab2 (antibody, V domains shown) VH: QVQLQQSGPELVRPGASVKISCKASGYAFSNSWMNWVKQRPGKGLEWIGRIFPGDGDTYYDGKFKGKVKLTTDKFSNTAYMQLRSLTSEDSAVYFCARWGGTNDEWFAHWGQGTLVTVSV VL: DIVLTQSPASLTVSLGQRATISCRASQSVSTSRNSYMHWYQQKPRQPPKLLIKYASNLESGVPARFSGSGSGADFTLNIHPVEEEDTATYYCQHSWDIPLTFGTGTKLELS", "Kd [nM]": 91.9}
{"Binder": "ACI-7067-1102G3-Ab1 (antibody, V domains shown) VH: EVKLEESGGGLVQPGGSMKLSCAASGFTFSDAWMNWVRQSPEKGLEWVAEIRNKAHNHATYYAESVKGRFTISGDDSKSSVYLQMNNLRAEDTGIYYCTIYSYWGQGTLVTVSA VL: SIVMTQTPKFLLVSAGDRVTITCKASQSVTKDVAWYQQKPGQSPKLLIYSTSNRYSGVPDRFTGSGYGTDFTFTINTVQTEDLAVYFCQQDYRIPYTFGGGTKLEIK", "Kd [nM]": 30.6}
{"Binder": "ACI-7079-2501G2-Ab2 (antibody, V domains shown) VH: EVQLVESGGGLVQPKGSLKLSCAASGFNFNTYAMNWVRQAPGKGLEWVARIRTKSNNFATYYAHSVKDRFTISRDDSESMLYLQMNNLKTEDTAMYYCVRQGLAYYAMDYWGQGTSVTVSS VL: DVLMTQTPLSLPVSLGDQVSISCRSSQTIVHSNGNTYLEWYLQKPGQSPKLLIYKVSNRFSGVPDRFSGSGSGTDFTLKISRVEAEDLGVYYCFQGSQGPLTFGAGTKLELK", "Kd [nM]": 27.8}
{"Binder": "ACI-8033-1A12-Ab1 (antibody, V domains shown) VH: QVHLKQSGADLVRPGASVKLSCKASGYSFTDFYINWVKQTPGQGLEWIARIYPGNNNTFYNEKFKGKATLSAEKSSTTAYMQLSSLTSEDSAVYFCVVGYYGAWGQGTTLTVSS VL: DVVMTQTPLSLPVSLGDQASISCRSSQSLVHSNGNTHLHWYLQKPGQSPKLLIYKVSNRFSGVPDRFSGSGSGTDFTLKISRVEAEDLGFYFCSQSTHVPWTFGGGTKLEIK", "Kd [nM]": 9.8}
{"Binder": "ACI-7079-2501D10-Ab1 (antibody, V domains shown) VH: EVQLVESGGGLVQPKGSLKVSCAASGFTFKTYAMHWVRQAPGKGLEWVARIRSENSNFAKYYADSVKDRFTISRDDSQSMLYLQMNNLKTEDTAMYYCVRGYNGSSLDYWGQGTTLTVSS VL: QIVLTQSPAIMSAFPGERVTMTCSASSSVNYMHWYQQKSGTSPKRWIYDTSKLASGVPARFSGGGSGTSYSLTISNMEAEDAATYYCQQWRSNPPTFGGGTKLEIK", "Kd [nM]": 24.7}
{"Binder": "ACI-7067-1101C8-Ab2 (antibody, V domains shown) VH: EVQLVESGGGLVQPKGSLKLSCAASGFSFNIYAMNWVRQAPGKGLEWVARIRSKSNNYATYYADSVKDRFTISRADSESMLYLQMNNLKTEDTAMYYCVRVGLRFYAMDYWGQGTSVTVSS VL: DVLMTQTPLSLPVSLGDQASISCRSSQSIVHSNGNTYLEWYLQKPGQSPKLLIYKVSNRFSGVPDRFSGSGSGTDFTLKISRVEAEDLGVYYCFQGSQGPLTFGAGTKLELK", "Kd [nM]": 2.9}
{"Binder": "ACI-8033-19A2-Ab1 (antibody, V domains shown) VH: EVQLVESGGGLVQPKGSLKLSCAASGFSFNTYAMNWVRQAPGKGLEWVARIRSKSNNYATYYVDSVKDRFTISRDDSESMLYLQMNNLKTEDTALYYCVSESAYWGQGTLVTVSA VL: DVVMTQTPLSLPVSLGDQASISCRSSQSLVHSNGNTYLYWYLQKPGQSPKLLIYKVSNRLSGVPDRFSGSGSGTDFTLKISRVEAEDLGVYFCSQSTHVPFTFGSGTKLEIK", "Kd [nM]": 6.7}
{"Binder": "ACI-7088-4301H3-Ab2 (antibody, V domains shown) VH: EVQLQQSGPELVKPGASVKISCKASGYTFADYFMNWVKQSHGKSLEWIGDINPNNGGTTYNQKFKGKATLTVDKSSNTAYMELRSLTSEDSAVYYCARGRNYAMDYWGQGTSVTVSS VL: DIVMSQSPSSLAVSAGEKVTMSCKSSQSLLNSRTRKNYLAWYQQKPGQSPKLLIYSASTRESGVPDRFTGSGFGTDFTLTISSVQAEDLAVYYCKQSYDLWTFGGGTKLEIK", "Kd [nM]": 86.5}
{"Binder": "ACI-7067-1111B12-Ab2 (antibody, V domains shown) VH: QVQLLQPGTALVMPGASVKLSCKASGYTFTTYWMHWVKQRPGQGLEWIGNINPINGGSNYNEKFKSKASLTVDKSSSTAYMQLSSLTSEDSAVYYCVIAMDYWGQGTSVTVSS VL: DIQMTQSPSSLSASLGERVSLTCRASQDIGISLNWFQQEPDGTIKRLIYATSSLDSGVPKRFSGNRSGSDYSLTISSLESEDFADYYCLQFASSPLTFGAGTKLELK", "Kd [nM]": 39.2}
